GI50, UACC-257 melanoma, per-entry values.

Can you share its GI50? I mean this compound: "Cc1c(Sc2ccccc2)[n+](=O)c2cc(Cl)c(Cl)cc2n1[O-]"
16 µM

Follow-up item: "COc1cc(Cl)cc(-c2nn(-c3cccc(NC(=O)Nc4ccc(Cl)c(C(F)(F)F)c4)c3)cc2-c2ccncc2)c1"
1.89 µM

Follow-up item: "CCN(CC)CCSCCCNc1c2ccc(Cl)cc2nc2ccc(OC)cc12"
2.06 µM

Follow-up item: "O=S(=O)(NCCNc1nccc(-c2c(-c3ccc(F)cc3)nc3sccn23)n1)c1ccccc1"
10.6 µM

Follow-up item: "CC(C)COC(=O)c1ccc2[nH]c(O)c(C=Nc3ccc(S(N)(=O)=O)cc3)c2c1"
3.99 µM

Follow-up item: "CCN(CC)CCOc1ccc(C(=O)/C=C\c2ccc(Cl)cc2Cl)cc1"
4.51 µM

Follow-up item: C/C=C(\C)C(=O)N[C@H]1C(O)C[C@]2(C)C3CC[C@@]4(C)C(CC[C@@H]4C(C)N(C)C)C3CCC2C1O (stereo not given in full)
3.22 µM

Follow-up item: "COc1cc2c3c(n(CCCN=[N+]=[N-])c(=O)c2cc1OC)-c1ccc(N(C)C)cc1C3=O"
> 100 µM

Follow-up item: "COc1ccc(-c2nn(-c3cccc(NC(=O)c4ccc(N5CCOCC5)c(C(F)(F)F)c4)c3)cc2-c2ccncc2)cc1Cl"
> 50 µM

Follow-up item: "Cn1cnc([N+](=O)[O-])c1Sc1ncn[nH]1"
68.2 µM

---

Hi there, I'd appreciate the recorded TGI for every entry that follows.
- Tested on: SF-295 CNS
- Method summary: NCI tumour cell line growth inhibition, 48 h

Can you share its TGI? I mean this compound: Nc1nc(N)c2nc(CNc3ccc(C(=O)NC(CCCCNC(=O)c4ccccc4C(=O)O)C(=O)O)cc3)cnc2n1 (centres undefined)
> 100 µM

Follow-up item: "N#Cc1nc(COCCOCc2ccc(F)cc2)oc1N"
> 100 µM

Follow-up item: "O=C(N/N=C\C(F)(F)F)c1ccncc1"
> 100 µM

Follow-up item: "c1ccc(CNc2nc(Nc3ccccc3)nc3ccccc23)cc1"
3.77 µM

Follow-up item: "COc1ccc(Nc2cc(C)nc(N3CCN(c4ccnc5cc(Cl)ccc45)CC3)n2)cc1"
7.68 µM

Follow-up item: "O=C(Nc1ccn(CCI)c(=O)n1)c1ccccc1"
> 100 µM

Follow-up item: "COc1ccc(CCc2nccn2C)cc1OC"
> 100 µM

Follow-up item: "Cc1cccc2nc3cccc(C(=O)NCCN(C)C)c3nc12"
14.3 µM

Follow-up item: "CCOC(=O)c1c(N2CCCC2)[nH]c(=O)c(C(c2cccs2)c2c(O)c(C(=O)OCC)c(N3CCCC3)[nH]c2=O)c1O"
> 100 µM

Follow-up item: "CCc1n[nH]c(=O)n1CCO"
> 100 µM

Follow-up item: CC[C@@H]1/C=C/C=C/C[C@H](C)[C@@H](O)[C@](C)(O)C(=O)[C@H](C)[C@@H](O)[C@H](C)C(=O)[C@H](C)[C@@H](O)[C@H](C)/C=C/C(=O)O[C@H]2[C@@H](C)[C@@H](CC1)O[C@@]1(CC[C@@H](C)[C@@H](CC(C)O)O1)[C@@H]2C (some centres undefined)
9.05 µM

Follow-up item: "CC(=O)c1cc(C)n2c1CS[C@@H]2c1ccccc1"
> 100 µM

Follow-up item: Cc1cc2c(cc1N)C(C)C1(CCC(=O)N2Cc2ccccc2)OCCO1 (centres undefined)
> 100 µM

Follow-up item: "COC(=O)[C@@H](C)C[C@H](Cc1ccccc1)NC(=O)c1csc([C@@H](C[C@H](C(C)C)N(C)C(=O)[C@H](C)NC(=O)[C@H]2CCCCN2C)OC(C)=O)n1"
> 25 µM

Follow-up item: "CC(=O)NNc1nc(C)c(C(=O)NNC(=O)C(=O)Nc2c(C)cccc2C(C)(C)C)s1"
> 100 µM

Follow-up item: "CCCNc1nc2ccccc2c2c1S(=O)(=O)c1ccc(Cl)cc1C2=O"
> 50 µM

Follow-up item: "O=C1c2nc3n(c2C(=O)c2c1nc1n2CCC1)CCC3"
17.9 µM

Follow-up item: "O=S(=O)(C/C(=N\O)c1ccccc1)c1ccccc1"
> 100 µM

Follow-up item: "N#Cc1c(N2CCOCC2)[nH]c(=O)c(C(c2c(Cl)cccc2Cl)c2c(O)c(C#N)c(N3CCOCC3)[nH]c2=O)c1O"
> 100 µM
